Assay text: Unbound tissue partition coefficient, ratio of drug level in adipose to plasma in Wistar Han rat at 1 to 2 mg/kg, iv infused for 10 to 20 hrs by LC-MS/MS analysis
Condition notes: adipose/plasma
Criterion: Kp uu strictly under 1. Met: true. Not met: false.

[
  {
    "Cpd smiles": "N#Cc1ccc(N2N=C(N3CCC(C(=O)N4CCC(O)CC4)CC3)C[C@H]2C2CCCC2)cc1Cl",
    "Discrete label": "false"
  },
  {
    "Cpd smiles": "C[C@H](c1nc2cnc(N3CCC[C@@H](C(=O)N4CCCC4)C3)nc2[nH]1)n1cc(Cl)cn1",
    "Discrete label": "false"
  },
  {
    "Cpd smiles": "C[C@H]1c2cccc(CCC(C)(C)O)c2C[C@H](CO)N1C(=O)Cc1c(Cl)cccc1Cl",
    "Discrete label": "false"
  },
  {
    "Cpd smiles": "CCC[C@H](Oc1cc(C)c(-n2cc(C(F)(F)F)cn2)c(C)c1)c1ccc(C(=O)NCCC(=O)O)cc1",
    "Discrete label": "true"
  },
  {
    "Cpd smiles": "O=C(O)C(=O)Nc1ccc(NC(=O)[C@H](CC2CCCC2)n2cnc(C(F)(F)F)c2)nc1",
    "Discrete label": "true"
  },
  {
    "Cpd smiles": "O=C(O)c1nc2cc(Cl)c(Cl)cc2nc1O",
    "Discrete label": "true"
  },
  {
    "Cpd smiles": "CC1(OC(=O)N2CCC(n3ncc(COc4ccc(C(N)=O)cc4F)c3C#N)CC2)CC1",
    "Discrete label": "false"
  },
  {
    "Cpd smiles": "C[C@H]1C[C@H]2CSC(N)=N[C@@]2(c2cc(C#N)ccc2F)CO1",
    "Discrete label": "false"
  },
  {
    "Cpd smiles": "O=C(O)[C@@H]1CCCN(C(=O)n2cnc(-c3ccc(-c4cnc(N5CCOCC5)nc4)cc3)n2)[C@H]1c1ccccc1",
    "Discrete label": "false"
  }
]
